Values were extracted from ChEMBL document CHEMBL3433997.

Could you please report measured inhibition for the items listed next?
Tested Target: Solute carrier family 2, facilitated glucose transporter member 1 (Homo sapiens) (UniProt P11166)
Sequence (P11166 whole entry): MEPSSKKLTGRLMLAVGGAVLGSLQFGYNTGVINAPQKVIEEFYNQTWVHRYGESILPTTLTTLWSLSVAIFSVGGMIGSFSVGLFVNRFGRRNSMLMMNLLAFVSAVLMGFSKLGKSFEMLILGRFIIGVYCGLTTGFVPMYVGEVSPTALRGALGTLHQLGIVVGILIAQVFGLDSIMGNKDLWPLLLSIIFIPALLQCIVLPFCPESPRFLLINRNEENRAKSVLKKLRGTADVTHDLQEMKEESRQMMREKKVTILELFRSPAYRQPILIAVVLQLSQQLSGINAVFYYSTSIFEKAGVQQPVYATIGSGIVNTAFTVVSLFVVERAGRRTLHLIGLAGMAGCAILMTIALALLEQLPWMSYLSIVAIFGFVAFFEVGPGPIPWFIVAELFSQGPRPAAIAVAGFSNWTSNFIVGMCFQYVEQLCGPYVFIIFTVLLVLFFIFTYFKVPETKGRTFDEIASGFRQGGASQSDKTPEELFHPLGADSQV
Measurement Notes: ST_JUDE_LEISH: Cytotoxicity at 2uM final concentration against transgenic Leishmania Mexicana promastigotes LmGLUT1 that are glucose transport deficient and complemented with the human glucose transporter GLUT1. Activity is measured by DNA content using SYBR green in vitro
Format: functional
One number for each entry, in %.

CCc1c(CCNCCCCCCNCCc2ccc(OC)cc2)ccc(OC)c1OC : 5.63

I would be grateful if you could provide inhibition for each of the following entries.
1. CN(/N=C/C=C/c1ccc(Cl)cc1)c1nc(NCCc2ccc(O)cc2)nc(N2CCNCC2)n1
2. CC[C@H]1CN(C/C=C/c2ccc(OC)cc2)CC[C@H]1CCCc1ccnc2ccc(O)cc12
3. Cc1nnc(-c2cccc(Nc3ccnc4cc(-c5nccs5)ccc34)c2)o1

OUTPUT:
[-0.76, 2.15, 11.2]

###

Tested Target: Solute carrier family 2, facilitated glucose transporter member 1 (Homo sapiens) (UniProt P11166)
Measurement Notes: ST_JUDE_LEISH: Cytotoxicity at 2uM final concentration against transgenic Leishmania Mexicana promastigotes LmGLUT1 that are glucose transport deficient and complemented with the human glucose transporter GLUT1. Activity is measured by DNA content using SYBR green in vitro
Assay type: functional
Could you please report measured inhibition for the items listed next?
Give bare numbers, in %.

Answered examples (8):
CCOc1cc(C)ccc1C1CCN(CCCCNC(=O)c2nc(-c3ccc(C(F)(F)F)cc3)[nH]c2C)CC1 : 1.65
CC(=O)N1N=C(c2[nH]c3ccc(Br)cc3c2C)OC1c1ccccc1 (centres undefined) : 4.69
FC(F)(F)c1cccc(Nc2nc3nonc3nc2NC2C3CC4CC(C3)CC2C4)c1 (centres undefined) : 3.05
COc1cccc(C(=O)NCCOc2ccccc2)c1Oc1ccccc1 : 5.14
CCN1CCC(N(Cc2ccc(-c3ccc(C(F)(F)F)cc3)cc2)C(=O)Cn2c(CCc3cccc(F)c3F)cc(=O)c3cn(C)nc32)CC1 : -2.3
Cc1ccccc1C1CCN(C2CCC(NC(=O)c3csc(-c4cccc(Cl)c4)n3)CC2)CC1 (centres undefined) : 9.21
O=C(C=Cc1ccc(Cl)c(Cl)c1)NCCCCCN1CCCC(CCCNC(=O)C2CC2c2ccccc2)C1 (centres undefined) : 2.64
NC1=NC2(CCCCC2)N(OCCCCCCc2ccccc2)C(N)=N1 : 2.09

INPUT: Sample O=C(/C=C/c1ccc(Cl)c(Cl)c1)NCCCCCN1CCC(NC(=O)Nc2ccccc2F)CC1 — what was its inhibition?
OUTPUT: 0.1

###

Tested Target: Hexose transporter 1 (Plasmodium falciparum) (UniProt O97467)
Measurement Notes: ST_JUDE_LEISH: Cytotoxicity at 2uM final concentration against transgenic Leishmania Mexicana promastigotes LmPfHT that are glucose transport deficient and complemented with the Plasmodium falciparum hexose transporter. Activity is measured by DNA content using SYBR green in vitro
Type: functional
Endpoint Name: inhibition (%)
One number for each entry, in %.

Answered examples (3):
COc1ccc(-c2ccc(NC(=O)c3ccc(C#N)cc3)cc2)cc1CN1CCCC1 : 0.11
CCOc1ccc2nc3cc(N)ccc3c(N)c2c1 : 3.26
N=c1n(CCN2CCCCC2)c2ccccc2n1CC(=O)c1cccc([N+](=O)[O-])c1 : 4.32

I would be grateful if you could provide inhibition for each of the following entries.
1. Nc1nc(N)c2c3c(cnc2n1)CCCC3
2. CCCC(CNCc1ccc(Cl)c(C(F)(F)F)c1)CNc1nc2cnccc2[nH]1 (stereo not given)
3. CN(C)Cc1ccc(-c2cccc(NC(=O)c3ccc(Cl)cc3)c2)cc1
4. CC(C)CCCC(C)(C)NC[C@@H](O)[C@H](Cc1ccccc1)NC(=O)c1cc(NC(C)C)cc(N2CCCCS2(=O)=O)c1F
5. O=C(Nc1ccc(CN2CCOCC2)cc1)c1ccc(-c2cc(Cl)ccc2Cl)o1

OUTPUT:
1: 9.11; 2: 11.9; 3: -0.06; 4: 5.83; 5: 8.63

I would be grateful if you could provide inhibition for each of the following entries.
1. O=C(/C=C/c1ccc(Cl)c(Cl)c1)NCCCCCN1CCC(NC(=O)Nc2ccc(F)c(F)c2)CC1
2. CCCc1ccccc1OCC(O)CN(C1CCCC1)C1CCCC1 (stereo not given)
3. Oc1ccc(CCNc2nc(NCc3cccc(-c4cc(C(F)(F)F)ccc4Cl)c3)nc(N3CCNCC3)n2)cc1
4. c1ccc(CNCc2cccc(-c3csc(-c4nc5ccccc5[nH]4)c3)c2)cc1
5. COCc1ccc(CN2CCC(C(=O)Nc3ccc(-c4nc5ccccc5[nH]4)cc3)CC2)o1

OUTPUT:
1: -0.67; 2: 6.68; 3: 1.88; 4: 5.03; 5: 5.18

I would be grateful if you could provide inhibition for each of the following entries.
1. COc1ccc(Cl)cc1C(=O)Nc1ccc(-c2nc3ccccc3[nH]2)cc1
2. COc1ccccc1-c1ccc(CNC(=O)C(CN2CCN(C)CC2)c2ccccc2)cc1 (stereo not given)
3. Cc1ccc(NC(=O)c2ccc(Cl)cc2)cc1-c1ccc(C(=O)Nc2ccncc2)cc1

OUTPUT:
3.29
1.12
1.31

I would be grateful if you could provide inhibition for each of the following entries.
1. COc1ccc(Cl)cc1N1CCN(CCCNC(=O)c2ccc(-c3nc4cnccc4[nH]3)c(Br)c2)CC1
2. COc1ccc(Nc2ncc3c(-c4cccc(NC(=O)Cc5ccc(F)cc5)c4)c[nH]c3n2)cc1OC
3. O=C(Nc1ccc(CN2CCOCC2)cc1)c1ccc(-c2ccc(Br)cc2)o1
4. CCN(CCCN1CCCCC1)c1cc(C)nc(Nc2ccc(C(C)C)cc2)n1

OUTPUT:
[-0.19, 2.59, 0.46, 1.56]
